Data origin: ChEMBL document CHEMBL1126147

# ASSAYED_SYSTEM: Aldo-keto reductase family 1 member B1 (Homo sapiens, UniProt P15121)
# METHOD_DESCRIPTION: In vitro inhibitory activity against aldose reductase isolated from human placenta
MEASUREMENT_NAME: IC50 (nM)

Sample records with IC50:
{"columns": ["ITEM_SMILES", "IC50 (nM)"],
 "data": [
  ["O=C(O)Cc1nn(Cc2nc(-c3ccccc3)c(-c3ccccc3)o2)c(=O)c2ccccc12", 4500],
  ["O=C(O)Cc1nn(Cc2nc(-c3ccc(F)cc3F)no2)c(=O)c2ccccc12", 630]
]}

(a) O=C(O)Cc1nn(Cc2csc(-c3ccccc3F)n2)c(=O)c2ccccc12
(b) O=C(O)Cc1nn(Cc2nc(-c3ccccc3Br)no2)c(=O)c2ccccc12
(c) O=C(O)Cc1nn(Cc2cc3c(Cl)cccc3s2)c(=O)c2ccccc12
Provide the items ranked by increasing IC50. Rank the items, then write their labels in that order.
b, c, a
(b: 6.5 nM, c: 110 nM, a: 460 nM)

* * *

Quick reference for inhibition in vivo at 10 mg/kg among some molecules
# Tested on: Rattus norvegicus
# METHOD_DESCRIPTION: In vivo inhibition of sorbitol accumulation in the sciatic nerve in streptozotocin induced diabetic rat model at a concentration of 10 mg/kg
# Format: functional
Please state the figure in %; there is no need to write the unit.

Below: 4 molecules and their reported inhibition in vivo at 10 mg/kg.
{"columns": ["ITEM_SMILES", "inhibition in vivo at 10 mg/kg (%)"],
 "data": [
  ["O=C(O)Cc1nn(Cc2nc3cc(C(F)(F)F)ccc3o2)c(=O)c2ccccc12", 32],
  ["O=C(O)Cc1nn(Cc2nc(-c3ccccc3Br)no2)c(=O)c2ccccc12", 27],
  ["O=C(O)Cc1nn(Cc2nc3cc(C(F)(F)F)ccc3s2)c(=O)c2ccccc12", 80],
  ["O=C(O)Cc1nn(Cc2nc3cc(Br)ccc3o2)c(=O)c2ccccc12", 67]
]}

Input O=C(O)Cc1nn(Cc2nc3cc(Cl)cc(Cl)c3o2)c(=O)c2ccccc12 , output reported inhibition in vivo at 10 mg/kg.
63

Provide inhibition in vivo at 10 mg/kg value for the following molecule: O=C(O)Cc1nn(Cc2nc3cc(F)cc(F)c3o2)c(=O)c2ccccc12
78

Note inhibition in vivo at 10 mg/kg for the molecule shown: O=C(O)Cc1nn(Cc2nc3cc(Cl)ccc3o2)c(=O)c2ccccc12
72

* * *

# ASSAYED_SYSTEM: Aldo-keto reductase family 1 member B1 (Homo sapiens, UniProt P15121)
# METHOD_DESCRIPTION: In vitro inhibitory activity against aldose reductase isolated from human placenta
pIC50: −log10 of the molar value.
MEASUREMENT_NAME: pIC50

(1) O=C(O)Cc1nn(Cc2cc3cccnc3s2)c(=O)c2ccccc12
(2) O=C(O)Cc1nn(Cc2nc(-c3ccccc3C(F)(F)F)no2)c(=O)c2ccccc12
(3) O=C(O)Cc1nn(CC(=O)Nc2ccc(C(F)(F)F)cc2)c(=O)c2ccccc12
(4) O=C(O)Cc1nn(CC(=O)Nc2cccc(Cl)c2)c(=O)c2ccccc12
(5) O=C(O)Cc1nn(Cc2cc(-c3ccccc3)ns2)c(=O)c2ccccc12
Lab note: order the above by reported pIC50, lowest first, highest last. # output: labels, in the requested order
3, 5, 1, 2, 4
(3: 5.68, 5: 6.17, 1: 6.38, 2: 6.66, 4: 7.89)

* * *

# ASSAYED_SYSTEM: Aldo-keto reductase family 1 member B1 (Homo sapiens, UniProt P15121)
# METHOD_DESCRIPTION: In vitro inhibitory activity against aldose reductase isolated from human placenta
MEASUREMENT_NAME: IC50 (nM)

Consider the reported IC50 for these compounds:
{"columns": ["ITEM_SMILES", "IC50, nM"],
 "data": [
  ["O=C(O)Cc1nn(Cc2nc3cc(F)cc(F)c3o2)c(=O)c2ccccc12", 3.2],
  ["O=C(O)Cc1nn(C/C(S)=N/c2cccc(C(F)(F)F)c2)c(=O)c2ccccc12", 52]
]}

(1) O=C(O)Cc1nn(Cc2nc(-c3ccccc3)co2)c(=O)c2ccccc12
(2) O=C(O)Cc1nn(CC(=O)Nc2cc(C(F)(F)F)ccc2Br)c(=O)c2ccccc12
(3) O=C(O)Cc1nn(CC(=S)Nc2cc(C(F)(F)F)ccc2Br)c(=O)c2ccccc12
Hello, I need these entries ordered by IC50, highest reading first. Thanks! A complete answer lists every label in the requested sequence.
1, 3, 2

(I) O=C(O)Cc1nn(Cc2nc(-c3ccccc3)cs2)c(=O)c2ccccc12
(II) O=C(O)Cc1nn(Cc2nc(-c3ccccc3)ns2)c(=O)c2ccccc12
(III) O=C(O)Cc1nn(Cc2cc3cc(Cl)ccc3o2)c(=O)c2ccccc12
(IV) O=C(O)Cc1nn(Cc2cc3ccccc3[nH]2)c(=O)c2ccccc12
rank_up(items): orders items by reported IC50 in ascending numerical order. Put the labels in the requested order and list them out.
I, III, IV, II
(I: 34 nM, III: 150 nM, IV: 870 nM, II: 2200 nM)

* * *

# ASSAYED_SYSTEM: Aldo-keto reductase family 1 member B1 (Homo sapiens, UniProt P15121)
# METHOD_DESCRIPTION: In vitro inhibitory activity against aldose reductase isolated from human placenta
MEASUREMENT_NAME: IC50 (nM)

{"columns": ["ITEM_SMILES", "IC50 (nM)"],
 "data": [
  ["O=C(O)Cc1nn(Cc2nc3cc(Br)ccc3o2)c(=O)c2ccccc12", 27]
]}

(1) O=C(O)Cc1nn(Cc2nc(-c3c(F)cccc3Cl)no2)c(=O)c2ccccc12
(2) O=C(O)Cc1nn(Cc2nc(-c3ccccn3)no2)c(=O)c2ccccc12
(3) O=C(O)Cc1nn(Cc2noc(-c3ccccc3C(F)(F)F)n2)c(=O)c2ccccc12
Your job: order these 3 records by IC50, ascending. Use the labels to give the ranking in the order requested.
2, 1, 3

* * *

# ASSAYED_SYSTEM: Aldo-keto reductase family 1 member B1 (Homo sapiens, UniProt P15121)
# METHOD_DESCRIPTION: In vitro inhibitory activity against aldose reductase isolated from human placenta
pIC50: −log10 of the molar value.
MEASUREMENT_NAME: pIC50

{"columns": ["ITEM_SMILES", "TEST_RESULT"],
 "data": [
  ["Cn1c(Cn2nc(CC(=O)O)c3ccccc3c2=O)nc2ccccc21", 5.38]
]}

(1) O=C(O)Cc1nn(Cc2nc(-c3ccccc3Cl)ns2)c(=O)c2ccccc12
(2) O=C(O)Cc1nn(Cc2cn3ccc(Cl)cc3n2)c(=O)c2ccccc12
(3) O=C(O)Cc1nn(CC(=O)Nc2ccccc2Cl)c(=O)c2ccccc12
Form: Sort by [pIC50] Order [ ascending ] Present the labels in the sequence the task asks for.
1, 3, 2
(1: 5.96, 3: 6.37, 2: 7.43)

* * *

# ASSAYED_SYSTEM: Aldo-keto reductase family 1 member B1 (Homo sapiens)
# METHOD_DESCRIPTION: In vitro inhibitory activity against aldose reductase isolated from human placenta
MEASUREMENT_NAME: IC50 (µM)

Below: 2 compounds and their reported IC50.
{"columns": ["ITEM_SMILES", "ASSAYED_SYSTEM", "MEASUREMENT_NAME", "TEST_RESULT"],
 "data": [
  ["O=C(O)Cc1nn(Cc2cc3cc(Cl)ccc3s2)c(=O)c2ccccc12", "Aldo-keto reductase family 1 member B1 (Homo sapiens)", "IC50", 0.25],
  ["O=C(O)Cc1nn(Cc2nc(-c3ccc(Br)cc3)no2)c(=O)c2ccccc12", "Aldo-keto reductase family 1 member B1 (Homo sapiens)", "IC50", 4.6]
]}

(I) O=C(O)Cc1nn(CC(=O)Nc2cc(C(F)(F)F)cc(C(F)(F)F)c2Br)c(=O)c2ccccc12
(II) O=C(O)Cc1nn(Cc2nc3ccccc3o2)c(=O)c2ccccc12
In the pair I and II , the larger recorded IC50 belongs to which? The response must carry the label of the picked entry.
I
(I: 2.2 µM, II: 0.089 µM)

* * *

# ASSAYED_SYSTEM: Aldo-keto reductase family 1 member B1 (Homo sapiens, UniProt P15121)
# METHOD_DESCRIPTION: In vitro inhibitory activity against aldose reductase isolated from human placenta
pIC50: −log10 of the molar value.
MEASUREMENT_NAME: pIC50

Example compounds with recorded pIC50:
{"columns": ["ITEM_SMILES", "MEASUREMENT_NAME", "TEST_RESULT"],
 "data": [
  ["O=C(O)Cc1nn(CC(=O)Nc2cc(F)cc(F)c2O)c(=O)c2ccccc12", "pIC50", 6.77],
  ["O=C(O)Cc1nn(Cc2noc(-c3ccccc3Cl)n2)c(=O)c2ccccc12", "pIC50", 7.55],
  ["O=C(O)Cc1nn(Cc2snc3ccccc23)c(=O)c2ccccc12", "pIC50", 6.14],
  ["O=C(O)Cc1nn(Cc2nc3ccc(Br)cc3o2)c(=O)c2ccccc12", "pIC50", 6.27],
  ["Cc1ccccc1-c1noc(Cn2nc(CC(=O)O)c3ccccc3c2=O)n1", "pIC50", 7.19]
]}

(a) O=C(O)Cc1nn(Cc2nc(-c3ccccc3)no2)c(=O)c2ccccc12
(b) O=C(O)Cc1nn(CC(=O)Nc2ccccc2C(F)(F)F)c(=O)c2ccccc12
// which entry reports the smaller pIC50, a or b ? Which one? Tell me its label.
b
(b: 5.23, a: 6.80)
